System: 782815-120-R-J1-PDC complex spheroid viability
Assay: Anticancer human tumor 782815-120-R-J1-PDC patient-derived colon adenocarcinoma cell line growth inhibition [RAS]
Conditions: second compound 0.1 µM; first compound 0.1 µM; stronger effect = lower value
viability, T/C strictly less than 90% = t. Otherwise f.

{"compound": "NC1c2ccccc2OC12CCN(c1cnc3c(N4CCCc5ncccc54)n[nH]c3n1)CC2 (stereo not given) + C#Cc1c(F)ccc2cc(O)cc(-c3ncc4c(N5CC6CCC(C5)N6)nc(OCC56CCCN5CC(F)C6)nc4c3F)c12", "group": "f"}
{"compound": "O=C(c1ccc(F)c(F)c1Nc1ccc(I)cc1F)N1CC(O)([C@@H]2CCCCN2)C1 + C#Cc1c(F)ccc2cc(O)cc(-c3ncc4c(N5CC6CCC(C5)N6)nc(OCC56CCCN5CC(F)C6)nc4c3F)c12", "group": "t"}
{"compound": "CC(=O)OC12COC1CC(O)C1(C)C(=O)C(O)C3=C(C)C(OC(=O)C(O)C(NC(=O)OC(C)(C)C)c4ccccc4)CC(O)(C(OC(=O)c4ccccc4)C21)C3(C)C (stereo not given) + C#Cc1c(F)ccc2cc(O)cc(-c3ncc4c(N5CC6CCC(C5)N6)nc(OCC56CCCN5CC(F)C6)nc4c3F)c12", "group": "t"}

Input: viability, T/C strictly < 90% for this compound? Cc1nc(N2CCC3(CC2)COC(C)C3N)c(CO)nc1Sc1ccnc(N)c1Cl (stereo not given) + C=CC(=O)N1CCN(c2nc(OCC3CCCN3C)nc3c(F)c(-c4nc(N)cc(C)c4C(F)(F)F)c(Cl)cc23)C(C)C1
Output: f

---

viability, T/C for assorted compounds
System: 782815-120-R-J1-PDC complex spheroid viability
Test: Anticancer human tumor 782815-120-R-J1-PDC cell line growth inhibition [RAS];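 also: spheroids exposed to compounds for 7 days before reading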;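 as to viability, T/C: 100% = DMSO vehicle control viability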
Details: second compound 0.0949 µM; first compound 0.003 µM; stronger effect = lower value
Numbers only; they are read as %.

Some entries whose results are on file:
{"compound": "CC1(C)CCC(Nc2ncc(C(F)(F)F)c(-c3c[nH]c4c(P(C)(C)=O)c(C#N)ccc34)n2)CN1 (centres undefined) + CCn1c(-c2cccnc2C(C)OC)c2c3cc(ccc31)N1CCOC(CC(NC(=O)C(C(C)C)N(C)C(=O)C3(F)CCN(C(=O)C#CC(C)(C)N(C)C)CC3)C(=O)N3CCCC(N3)C(=O)OCC(C)(C)C2)C1", "system": "782815-120-R-J1-PDC complex spheroid viability", "viability, T/C [%]": 83.6}
{"compound": "CCc1c2c(nc3ccc(O)cc13)-c1cc3c(c(=O)n1C2)COC(=O)[C@]3(O)CC + CCn1c(-c2cc(N3CCN(C)CC3)cnc2C(C)OC)c2c3cc(ccc31)-c1csc(n1)CC(NC(=O)C1CC1C)C(=O)N1CCCC(N1)C(=O)OCC(C)(C)C2", "system": "782815-120-R-J1-PDC complex spheroid viability", "viability, T/C [%]": 16.3}
{"compound": "CC1(C)CCC(Nc2ncc(C(F)(F)F)c(-c3c[nH]c4c(P(C)(C)=O)c(C#N)ccc34)n2)CN1 (centres undefined) + CCn1c(-c2cc(N3CCN(C)CC3)cnc2C(C)OC)c2c3cc(ccc31)-c1csc(n1)CC(NC(=O)C1CC1C)C(=O)N1CCCC(N1)C(=O)OCC(C)(C)C2", "system": "782815-120-R-J1-PDC complex spheroid viability", "viability, T/C [%]": 15.6}

Note: attention shifts to another entry.
The measured viability, T/C associated with CCc1c2c(nc3ccc(O)cc13)-c1cc3c(c(=O)n1C2)COC(=O)[C@]3(O)CC + CCn1c(-c2cccnc2C(C)OC)c2c3cc(ccc31)N1CCOC(CC(NC(=O)C(C(C)C)N(C)C(=O)C3(F)CCN(C(=O)C#CC(C)(C)N(C)C)CC3)C(=O)N3CCCC(N3)C(=O)OCC(C)(C)C2)C1 reads 57

---

viability, T/C for assorted molecules
Test system: 782815-120-R-J1-PDC complex spheroid viability
Assay: Anticancer human tumor 782815-120-R-J1-PDC cell line growth inhibition [RAS];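 also: spheroids exposed to compounds for 7 days before reading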;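 as to viability, T/C: 100% = DMSO vehicle control viability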
Conditions: second compound 0.03 µM; first compound 0.0316 µM; stronger effect = lower value

Some entries whose results are on file:
{"molecule": "CCN1CCN(Cc2ccc(Nc3ncc(F)c(-c4cc(F)c5nc(C)n(C(C)C)c5c4)n3)nc2)CC1 + CCn1c(-c2cccnc2C(C)OC)c2c3cc(ccc31)N1CCOC(CC(NC(=O)C(C(C)C)N(C)C(=O)C3(F)CCN(C(=O)C#CC(C)(C)N(C)C)CC3)C(=O)N3CCCC(N3)C(=O)OCC(C)(C)C2)C1", "viability, T/C": "101%"}
{"molecule": "CC(C)NCC(C(=O)N1CCN(c2ncnc3c2C(C)CC3O)CC1)c1ccc(Cl)cc1 (stereo not drawn) + CCn1c(-c2cccnc2C(C)OC)c2c3cc(ccc31)N1CCOC(CC(NC(=O)C(C(C)C)N(C)C(=O)C3(F)CCN(C(=O)C#CC(C)(C)N(C)C)CC3)C(=O)N3CCCC(N3)C(=O)OCC(C)(C)C2)C1", "viability, T/C": "105%"}

The measured viability, T/C associated with C=CC(=O)Nc1cc(Nc2nccc(-c3cn(C)c4ccccc34)n2)c(OC)cc1N(C)CCN(C)C + CCn1c(-c2cccnc2C(C)OC)c2c3cc(ccc31)N1CCOC(CC(NC(=O)C(C(C)C)N(C)C(=O)C3(F)CCN(C(=O)C#CC(C)(C)N(C)C)CC3)C(=O)N3CCCC(N3)C(=O)OCC(C)(C)C2)C1 reads 96.3%

---

viability, T/C for assorted compounds
Tested on: 782815-120-R-J1-PDC complex spheroid viability
Assay: Anticancer human tumor 782815-120-R-J1-PDC cell line growth inhibition [RAS];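 also: spheroids exposed to compounds for 7 days before reading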;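 as to viability, T/C: 100% = DMSO vehicle control viability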
Settings: second compound 0.316 µM; first compound 0.0316 µM; stronger effect = lower value
Numbers only; they are read as %.

Some entries whose results are on file:
{"compound": "CC(C)NCC(C(=O)N1CCN(c2ncnc3c2C(C)CC3O)CC1)c1ccc(Cl)cc1 (stereo not given) + C#Cc1c(F)ccc2cc(O)cc(-c3ncc4c(N5CC6CCC(C5)N6)nc(OCC56CCCN5CC(F)C6)nc4c3F)c12", "numericResult": 109}
{"compound": "CC(C)n1nc(-c2ccc3oc(N)nc3c2)c2c(N)ncnc21 + C#Cc1c(F)ccc2cc(O)cc(-c3ncc4c(N5CC6CCC(C5)N6)nc(OCC56CCCN5CC(F)C6)nc4c3F)c12", "numericResult": 88.1}
{"compound": "C=CC(=O)N1CCN(c2nc(OCC3CCCN3C)nc3c(F)c(-c4nc(N)cc(C)c4C(F)(F)F)c(Cl)cc23)C(C)C1 (stereo not given) + C#Cc1c(F)ccc2cc(O)cc(-c3ncc4c(N5CC6CCC(C5)N6)nc(OCC56CCCN5CC(F)C6)nc4c3F)c12", "numericResult": 89.2}
{"compound": "CC1(O)CCCC1n1c(=O)c(C(F)F)cc2cnc(NC3CCN(S(C)(=O)=O)CC3)nc21 (stereo not given) + C=CC(=O)N1CCN(c2nc(OCC3CCCN3C)nc3c(F)c(-c4nc(N)cc(C)c4C(F)(F)F)c(Cl)cc23)C(C)C1", "numericResult": 56.4}

Note: attention shifts to another entry.
Record for CC(=O)OC12COC1CC(O)C1(C)C(=O)C(O)C3=C(C)C(OC(=O)C(O)C(NC(=O)OC(C)(C)C)c4ccccc4)CC(O)(C(OC(=O)c4ccccc4)C21)C3(C)C (stereo not given) + C#Cc1c(F)ccc2cc(O)cc(-c3ncc4c(N5CC6CCC(C5)N6)nc(OCC56CCCN5CC(F)C6)nc4c3F)c12 under target or system 782815-120-R-J1-PDC complex spheroid viability: viability, T/C reported as 38.8

---

Tested on: 782815-120-R-J1-PDC complex spheroid viability
Test: Anticancer human tumor 782815-120-R-J1-PDC cell line growth inhibition [RAS];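 also: spheroids exposed to compounds for 7 days before reading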
Conditions: curve of first compound; second compound 0.00949 µM
measuredProperty: IC50

{"compound": "CC(=O)OC12COC1CC(O)C1(C)C(=O)C(O)C3=C(C)C(OC(=O)C(O)C(NC(=O)OC(C)(C)C)c4ccccc4)CC(O)(C(OC(=O)c4ccccc4)C21)C3(C)C (stereo not drawn) + CCn1c(-c2cccnc2C(C)OC)c2c3cc(ccc31)N1CCOC(CC(NC(=O)C(C(C)C)N(C)C(=O)C3(F)CCN(C(=O)C#CC(C)(C)N(C)C)CC3)C(=O)N3CCCC(N3)C(=O)OCC(C)(C)C2)C1", "IC50": "< 0.0316 µM"}

Record for CC(=O)OC12COC1CC(O)C1(C)C(=O)C(O)C3=C(C)C(OC(=O)C(O)C(NC(=O)OC(C)(C)C)c4ccccc4)CC(O)(C(OC(=O)c4ccccc4)C21)C3(C)C (stereo not drawn) + CCn1c(-c2cc(N3CCN(C)CC3)cnc2C(C)OC)c2c3cc(ccc31)-c1csc(n1)CC(NC(=O)C1CC1C)C(=O)N1CCCC(N1)C(=O)OCC(C)(C)C2 under target or system 782815-120-R-J1-PDC complex spheroid viability: IC50 reported as < 0.0316 µM

Record for C=CC(=O)Nc1cc(Nc2nccc(-c3cn(C)c4ccccc34)n2)c(OC)cc1N(C)CCN(C)C + CCn1c(-c2cc(N3CCN(C)CC3)cnc2C(C)OC)c2c3cc(ccc31)-c1csc(n1)CC(NC(=O)C1CC1C)C(=O)N1CCCC(N1)C(=O)OCC(C)(C)C2 under target or system 782815-120-R-J1-PDC complex spheroid viability: IC50 reported as < 0.00316 µM
